- Study Target: human P2X7 receptor (Homo sapiens, UniProt Q99572)
- Construct: expressed in transfected cells
- Sequence (Q99572 whole entry): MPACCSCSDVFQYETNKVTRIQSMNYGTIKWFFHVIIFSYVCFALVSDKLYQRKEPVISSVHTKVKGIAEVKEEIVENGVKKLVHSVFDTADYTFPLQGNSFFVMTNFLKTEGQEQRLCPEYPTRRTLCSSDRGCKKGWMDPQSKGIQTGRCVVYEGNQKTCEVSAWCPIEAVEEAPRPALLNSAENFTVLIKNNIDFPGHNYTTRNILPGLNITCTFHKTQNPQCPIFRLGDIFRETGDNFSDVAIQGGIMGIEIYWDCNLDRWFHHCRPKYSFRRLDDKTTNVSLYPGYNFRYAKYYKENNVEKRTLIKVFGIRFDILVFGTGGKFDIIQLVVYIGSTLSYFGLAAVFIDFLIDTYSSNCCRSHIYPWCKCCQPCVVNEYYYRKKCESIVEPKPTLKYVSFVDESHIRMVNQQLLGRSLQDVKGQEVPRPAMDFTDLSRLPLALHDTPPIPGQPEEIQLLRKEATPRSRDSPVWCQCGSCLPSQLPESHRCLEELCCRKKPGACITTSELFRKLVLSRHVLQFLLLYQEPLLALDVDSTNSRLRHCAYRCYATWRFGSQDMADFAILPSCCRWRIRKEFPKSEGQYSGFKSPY
- Test Summary: Ethidium Accumulation Assay
- Assay type: cell-based
- Applied Conditions: HEK293 cells stably expressing human recombinant P2X7 receptors; 1 mM ATP; values given as 'about'; read-out: pIC50 for human P2X7 receptor antagonist activity (blocking ATP responses) in the Ethidium Accumulation Assay (converted)
Counter-ions that a name gives are not always drawn.
Observed Property: IC50

Previously resolved entries follow.
IC50 reading for Cc1ccc(-c2ccc(C)c(N3CCN(C(=O)c4cccc(C(F)(F)F)c4Cl)CC3=O)c2)cn1 [Example 74, hydrochloride] : 2.51 to 100 nM

IC50 reading for CC(C)Oc1cc(F)ccc1N1CCN(C(=O)c2cccc(C(F)(F)F)c2Cl)CC1=O : 2.51 to 100 nM

IC50 reading for Cc1ccccc1N1CCN(C(=O)c2ccc(Cl)cc2Cl)CC1=O : 5.01 to 200 nM

Continuing:
IC50 reading for CC(C)c1ccccc1N1CCN(C(=O)c2cccc(Cl)c2Cl)CC1=O : 2.51 to 100 nM

IC50 reading for O=C1CN(C(=O)c2cccc(C(F)(F)F)c2Cl)CCN1CC1CC1 : 2.51 to 100 nM

IC50 reading for O=C(c1cccc(C(F)(F)F)c1Cl)N1CCN(c2cccc(N3CCOCC3)c2Cl)C(=O)C1 : 2.51 to 100 nM

IC50 reading for O=C(c1cccc(Cl)c1Cl)N1CCN(c2cccc3ccccc23)C(=O)C1 : 2.51 to 100 nM

IC50 reading for O=C(c1cccc(Cl)c1Cl)N1CCN(c2ccc(F)cc2F)C(=O)C1 : 5.01 to 200 nM

IC50 reading for CC(C)CN1CCN(C(=O)c2cccc(Cl)c2Cl)CC1=O : 2.51 to 100 nM

IC50 reading for O=C(c1cccc(C(F)(F)F)c1Cl)N1CCN(c2ccc(F)cc2Cl)C(=O)C1 : 5.01 to 200 nM

IC50 reading for O=C(c1ccc(F)c(F)c1Cl)N1CCN(c2ccc(F)cc2Cl)C(=O)C1 : 2.51 to 100 nM

IC50 reading for Cc1ccc(N2CCCC2)cc1N1CCN(C(=O)c2cccc(C(F)(F)F)c2Cl)CC1=O : 2.51 to 100 nM

IC50 reading for N#Cc1cc(F)ccc1N1CCN(C(=O)c2cccc(Cl)c2Cl)CC1=O : 2.51 to 100 nM

IC50 reading for O=C(c1cccc(C(F)(F)F)c1Cl)N1CCN(c2cc(N3CCOCC3)ccc2Cl)C(=O)C1 : 2.51 to 100 nM

IC50 reading for O=C1CN(C(=O)c2cccc(C(F)(F)F)c2Cl)CCN1CC1CCCCC1 : 2.51 to 100 nM

IC50 reading for O=C(c1cccc(C(F)(F)F)c1Cl)N1CCN(c2cccc3ccccc23)C(=O)C1 : 2.51 to 100 nM

IC50 reading for O=C(c1cccc(C(F)(F)F)c1Cl)N1CCN(c2ccccc2Cl)C(=O)C1 : 5.01 to 200 nM

IC50 reading for CC(c1ccccc1)N1CCN(C(=O)c2cccc(C(F)(F)F)c2Cl)CC1=O (stereo not drawn) : 2.51 to 100 nM

----------
Catalogue of IC50 values
- Study Target: human P2X7 receptor (Homo sapiens, UniProt Q99572)
- Construct: expressed in transfected cells
- Test Summary: Ethidium Accumulation Assay
- Format: cell-based
- Applied Conditions: HEK293 cells stably expressing human recombinant P2X7 receptors; 1 mM ATP; values given as 'about'; read-out: pIC50 for human P2X7 receptor antagonist activity (blocking ATP responses) in the Ethidium Accumulation Assay (converted)

IC50 on human P2X7 receptor (Homo sapiens, UniProt Q99572) for Cc1ccc(N2CCC(O)C2)cc1N1CCN(C(=O)c2cccc(C(F)(F)F)c2Cl)CC1=O (stereo not drawn) is 2.51 to 100 nM

IC50 on human P2X7 receptor (Homo sapiens, UniProt Q99572) for O=C(c1cccc(Cl)c1Cl)N1CCN(c2ccc(F)cc2)C(=O)C1 is 5.01 to 200 nM

IC50 on human P2X7 receptor (Homo sapiens, UniProt Q99572) for O=C1CN(C(=O)c2cccc(Cl)c2Cl)CCN1Cc1ccc(F)cc1Cl is 5.01 to 200 nM

Continuing:
IC50 on human P2X7 receptor (Homo sapiens, UniProt Q99572) for O=C(c1cccc(Cl)c1Cl)N1CCN(c2ccc(Cl)cc2)C(=O)C1 is 5.01 to 200 nM

IC50 on human P2X7 receptor (Homo sapiens, UniProt Q99572) for Cc1c(N2CCOCC2)cccc1N1CCN(C(=O)c2c(Cl)cc(Cl)cc2Cl)CC1=O is 2.51 to 100 nM

IC50 on human P2X7 receptor (Homo sapiens, UniProt Q99572) for Cc1ccc(N2CCOCC2)cc1N1CCN(C(=O)c2cccc(Cl)c2Cl)CC1=O is 2.51 to 100 nM

IC50 on human P2X7 receptor (Homo sapiens, UniProt Q99572) for O=C(c1ccc(Cl)cc1Cl)N1CCN(c2ccccc2Cl)C(=O)C1 is 5.01 to 200 nM

IC50 on human P2X7 receptor (Homo sapiens, UniProt Q99572) for O=C(c1cccc(Cl)c1Cl)N1CCN(c2ccc(F)cc2Cl)C(=O)C1 is 5.01 to 200 nM
